// data source = ChEMBL document CHEMBL4219116

ASSAY SYSTEM: ADP-ribose glycohydrolase MACROD1 (Homo sapiens) (UniProt Q9BQ69)
TEST NAME: Inhibition of recombinant human N-terminal His6-tagged MDO1 (58 to 325 residues) expressed in Escherichia coli Rosetta2 (DE3) at 1 mM using mono-biotin-ADP-ribosylated SRPK2 as substrate after 16 hrs by Western blot analysis
Activity calls are given as the source filed them. The rule behind the calls is not given here.
Bench note: report the call from active, inactive

// known answers, use as guide
{"COMPOUND": "Nc1ncnc2c1ncn2[C@@H]1O[C@H](CNc2c(NCc3ccccc3)c(=O)c2=O)[C@@H](O)[C@H]1O", "GROUP": "inactive"}
{"COMPOUND": "Nc1ncnc2c1ncn2C1OC(CNC(=O)Cc2nnn[nH]2)[C@@H](O)[C@H]1O (single isomer, unassigned)", "GROUP": "inactive"}
{"COMPOUND": "Nc1ncnc2c1ncn2C1OC(CNC(=O)[C@@H](N)CO)[C@@H](O)C1O (single isomer, unassigned)", "GROUP": "inactive"}

Challenge: Name the outcome recorded for Nc1ncnc2c1ncn2C1OC(CNC(=O)CSc2nnnn2-c2ccccc2)[C@@H](O)[C@H]1O (single isomer, unassigned) in the assay.
Response given: inactive

Challenge: For this compound, state the assay outcome: `Cc1ccc(CNc2c(NC[C@H]3O[C@@H](n4cnc5c(N)ncnc54)[C@H](O)[C@@H]3O)c(=O)c2=O)cc1`
Response given: active

Challenge: Called result for Nc1ncnc2c1ncn2C1OC(CNC(=O)[C@H](CC(=O)O)NC(=O)OCC2c3ccccc3-c3ccccc32)[C@@H](O)C1O (single isomer, unassigned)
Response given: inactive

Challenge: Hello, I am checking results. What call was entered for `COc1ccc(CNc2c(NC[C@H]3O[C@@H](n4cnc5c(N)ncnc54)[C@H](O)[C@@H]3O)c(=O)c2=O)cc1` ?
Response given: inactive

###

ASSAY SYSTEM: UniProt Q9BQ69
Sequence (Q9BQ69 whole entry): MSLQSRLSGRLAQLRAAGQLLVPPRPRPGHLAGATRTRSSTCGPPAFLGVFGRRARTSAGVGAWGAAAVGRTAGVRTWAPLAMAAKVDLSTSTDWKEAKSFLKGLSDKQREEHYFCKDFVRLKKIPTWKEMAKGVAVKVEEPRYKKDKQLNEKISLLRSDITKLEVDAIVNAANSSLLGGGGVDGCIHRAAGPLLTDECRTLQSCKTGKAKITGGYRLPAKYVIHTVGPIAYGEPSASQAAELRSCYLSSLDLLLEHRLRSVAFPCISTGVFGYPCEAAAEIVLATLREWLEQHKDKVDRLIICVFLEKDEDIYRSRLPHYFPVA
MEASURED PROPERTY: Kd (µM)
Write it as a number; the unit µM goes unstated.

Challenge: Entry under review: `Nc1ncnc2c1ncn2[C@@H]1O[C@H](COP(=O)(O)OP(=O)(O)OC[C@@H]2O[C@H](O)[C@@H](O)[C@H]2O)[C@@H](O)[C@H]1O` . Reported Kd?
Response given: 0.9

###

ASSAY SYSTEM: ADP-ribose glycohydrolase MACROD1 (Homo sapiens)
TEST NAME: Inhibition of recombinant human N-terminal His6-tagged MDO1 (58 to 325 residues) expressed in Escherichia coli Rosetta2 (DE3) at 0.8 mM using mono-biotin-ADP-ribosylated SRPK2 as substrate after 16 hrs by Western blot analysis
Activity calls are given as the source filed them. The calls are words filed in the database; no cut-off is given here.
Result category, one only: True for active, False for inactive

Worked cases, answers included:
{"MOLECULE": "Nc1ncnc2c1ncn2[C@@H]1O[C@H](CNc2c(Nc3cccc([N+](=O)[O-])c3)c(=O)c2=O)[C@@H](O)[C@H]1O", "GROUP": "False"}
{"MOLECULE": "Nc1ncnc2c1ncn2[C@@H]1O[C@H](CNc2c(NCc3ccc(F)cc3)c(=O)c2=O)[C@@H](O)[C@H]1O", "GROUP": "False"}
{"MOLECULE": "CCCCNc1c(NC[C@H]2O[C@@H](n3cnc4c(N)ncnc43)[C@H](O)[C@@H]2O)c(=O)c1=O", "GROUP": "False"}
{"MOLECULE": "Nc1ncnc2c1ncn2[C@@H]1O[C@H](CNc2c(Nc3cccc(O)c3)c(=O)c2=O)[C@@H](O)[C@H]1O", "GROUP": "False"}

With those in mind, consider the next molecule.
Challenge: So what was the verdict on Nc1ncnc2c1ncn2C1OC(CNC(=O)[C@H](CO)NC(=O)OCC2c3ccccc3-c3ccccc32)[C@@H](O)C1O (single isomer, unassigned) in this test?
Response given: True
